Kindly supply the reported residual activity values for the records listed here.
tgt: UniProt P54753
Sequence (P54753 whole entry, looked up): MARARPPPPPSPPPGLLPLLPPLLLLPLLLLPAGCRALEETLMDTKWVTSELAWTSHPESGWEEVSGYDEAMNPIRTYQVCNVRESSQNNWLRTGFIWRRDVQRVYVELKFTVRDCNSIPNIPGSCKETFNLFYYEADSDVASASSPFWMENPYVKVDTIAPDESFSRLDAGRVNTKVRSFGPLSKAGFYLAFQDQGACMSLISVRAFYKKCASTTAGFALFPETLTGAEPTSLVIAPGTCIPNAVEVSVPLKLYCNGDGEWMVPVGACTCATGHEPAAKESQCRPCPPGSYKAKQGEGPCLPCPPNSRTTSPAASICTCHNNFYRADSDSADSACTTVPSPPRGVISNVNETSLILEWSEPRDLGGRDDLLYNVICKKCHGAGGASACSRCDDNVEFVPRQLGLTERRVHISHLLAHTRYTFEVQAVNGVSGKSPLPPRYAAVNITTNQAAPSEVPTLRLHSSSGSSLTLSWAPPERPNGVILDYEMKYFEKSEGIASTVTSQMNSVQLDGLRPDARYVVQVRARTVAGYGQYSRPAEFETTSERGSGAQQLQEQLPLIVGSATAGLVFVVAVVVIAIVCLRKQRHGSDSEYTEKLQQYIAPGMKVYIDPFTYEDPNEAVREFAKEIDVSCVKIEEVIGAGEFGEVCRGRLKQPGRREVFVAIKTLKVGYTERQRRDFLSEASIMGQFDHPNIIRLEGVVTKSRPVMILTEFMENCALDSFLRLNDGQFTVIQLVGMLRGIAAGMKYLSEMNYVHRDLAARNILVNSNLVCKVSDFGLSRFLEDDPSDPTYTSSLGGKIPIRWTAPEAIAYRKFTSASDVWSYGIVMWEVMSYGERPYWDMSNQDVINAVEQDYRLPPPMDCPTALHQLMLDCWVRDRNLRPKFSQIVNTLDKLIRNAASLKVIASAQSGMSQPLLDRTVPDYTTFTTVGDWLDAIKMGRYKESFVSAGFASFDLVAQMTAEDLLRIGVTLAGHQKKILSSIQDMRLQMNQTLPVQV
measurement.description: radiometric filter-binding kinase assay, Kinase HotSpot
measurement.conditions: compound 0.5 µM; ATP 10 µM

Solved cases below.
                                   compound  experimental_readout  reported_measurement
0      COc1cc2ncnc(Nc3ccc(O)c(Br)c3)c2cc1OC     residual activity                 88.1%
1    N#Cc1c(NC(=O)c2cccc3ccccc23)sc2c1CCCC2     residual activity                 95.9%
2  FC(F)(F)c1ccc(/C=C/c2nc(COc3ccc(CCCCn4ccnn4)cc3)co2)cc1     residual activity                 94.9%

Record residual activity per entry; entries follow.
1. CCc1nc(-c2ccc(OC)cc2)[nH]c1-c1ccncc1
2. O=S(=O)(NCCNC/C=C/c1ccc(Br)cc1)c1cccc2cnccc12
3. Cn1cc(/C=C2\C(=O)Nc3ccc(S(N)(=O)=O)cc32)c2ccccc21
4. COc1cc2c(Nc3ccc(Br)cc3F)ncnc2cc1OCC1CCN(C)CC1

107%
92.5%
93.2%
77.4%

###

Kindly supply the reported residual activity values for the records listed here.
tgt: PTK2B (human)
measurement.description: radiometric filter-binding kinase assay, Kinase HotSpot
measurement.conditions: compound 0.5 µM; ATP 10 µM
Give bare numbers, in %.

In [3]: df
Out[3]:
                                   compound  reported_measurement
0  O=c1c(-c2ccc(F)cc2)c(-c2ccncc2)[nH]n1-c1ccc(Cl)cc1                  91.7
1          COc1cccc(-c2cc(=O)c3ccccc3o2)c1N                  91.2
2          O=C(c1ccccc1)c1ccc(N2CCOCC2)cc1O                   102
3   Cc1cc(Nc2nc(-c3ccccc3)nc3ccccc23)n[nH]1                  61.4
4  O=c1c2ccccc2[nH]c(=S)n1CCN1CCC(=C(c2ccc(F)cc2)c2ccc(F)cc2)CC1                  98.5

Pending compound:
Give measured residual activity for Cn1cc(/C=C2\C(=O)Nc3ccc(S(N)(=O)=O)cc32)c2ccccc21 (PTK2B (human)).
43.1

###

tgt: MAPK3 (human) (UniProt P27361)
Sequence (P27361 whole entry, looked up): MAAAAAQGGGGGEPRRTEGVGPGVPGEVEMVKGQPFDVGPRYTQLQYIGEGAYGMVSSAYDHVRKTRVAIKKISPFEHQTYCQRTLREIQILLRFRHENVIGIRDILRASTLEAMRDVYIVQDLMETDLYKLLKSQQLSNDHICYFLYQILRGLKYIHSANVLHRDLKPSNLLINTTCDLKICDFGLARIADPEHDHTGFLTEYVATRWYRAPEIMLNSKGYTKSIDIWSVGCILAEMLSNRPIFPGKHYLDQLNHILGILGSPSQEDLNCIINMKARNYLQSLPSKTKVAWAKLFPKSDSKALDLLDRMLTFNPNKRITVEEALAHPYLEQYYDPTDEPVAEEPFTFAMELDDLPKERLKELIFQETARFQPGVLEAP
measurement.description: radiometric filter-binding kinase assay, Kinase HotSpot
measurement.conditions: compound 0.5 µM; ATP 10 µM
experimental.readout: residual activity (%)
Give bare numbers, in %.

Solved cases below.
                                   compound  value_unit  reported_measurement
0  c1ccc(-c2cnc(Nc3ccc(OCCN4CCCC4)cc3)s2)cc1           %                  99.8
1     O=c1cc(N2CCOCC2)oc2c(-c3ccccc3)cccc12           %                   104

Record residual activity per entry; entries follow.
1. COc1cc2c(cc1OC)-c1[nH]nc(Nc3cccc(F)c3)c1C2
2. Cn1cc(/C=C2\C(=O)Nc3ccc(S(N)(=O)=O)cc32)c2ccccc21

1: 93.7; 2: 109

###

tgt: BRSK2 (human)
measurement.description: radiometric filter-binding kinase assay, Kinase HotSpot
measurement.conditions: compound 0.5 µM; ATP 10 µM
experimental.readout: residual activity (%)
One number for each entry, in %.

Solved cases below.
>>> print(df.to_string())
                                   compound            tgt  value_unit  reported_measurement
0  CN[C@@H]1C[C@H]2O[C@@](C)([C@@H]1OC)n1c3ccccc3c3c4c(c5c6ccccc6n2c5c31)C(=O)NC4  BRSK2 (human)           %                  3.53
1      COc1cc2ncnc(Nc3ccc(O)c(Br)c3)c2cc1OC  BRSK2 (human)           %                  80.1
2  FC(F)(F)c1ccc(/C=C/c2nc(COc3ccc(CCCCn4ccnn4)cc3)co2)cc1  BRSK2 (human)           %                  99.6
3  O=C1NC(=O)c2c1c1c3ccccc3[nH]c1c1[nH]c3cc(Br)ccc3c21  BRSK2 (human)           %                  35.6
4  COc1cc2c(N3CCN(C(=O)Nc4ccc(OC(C)C)cc4)CC3)ncnc2cc1OCCCN1CCCCC1  BRSK2 (human)           %                  98.6
5    N#Cc1c(NC(=O)c2cccc3ccccc23)sc2c1CCCC2  BRSK2 (human)           %                   100
6   Cc1cc(Nc2nc(-c3ccccc3)nc3ccccc23)n[nH]1  BRSK2 (human)           %                  61.4
7       CCOc1cc2ncnc(Nc3cccc(Br)c3)c2cc1OCC  BRSK2 (human)           %                    94

Record residual activity per entry; entries follow.
1. COc1cc2c(cc1OC)-c1[nH]nc(Nc3cccc(F)c3)c1C2
2. O=c1[nH]c2ccccc2n1C1CCN(Cc2ccc(-c3nc4cc5[nH]cnc5cc4nc3-c3ccccc3)cc2)CC1

[92.1, 106]

###

Kindly supply the reported residual activity values for the records listed here.
tgt: TXK (human)
measurement.description: radiometric filter-binding kinase assay, Kinase HotSpot
measurement.conditions: compound 0.5 µM; ATP 10 µM
Answers are plain numbers, in %.

>>> df
                                   compound  value_unit  reported_measurement
0  N/C(=N\N=C/c1ccc(-c2cccc([N+](=O)[O-])c2)o1)N[N+](=O)[O-]           %                  98.3
1  O=S(=O)(NCCNC/C=C/c1ccc(Br)cc1)c1cccc2cnccc12           %                  86.8
2  c1ccc(-c2cnc(Nc3ccc(OCCN4CCCC4)cc3)s2)cc1           %                  91.1
3                   Nc1ncnc2c1cnn2-c1ccccc1           %                  94.8
4  O=c1[nH]c2ccccc2n1C1CCN(Cc2ccc(-c3nc4cc5[nH]cnc5cc4nc3-c3ccccc3)cc2)CC1           %                   104
5          COc1cccc(-c2cc(=O)c3ccccc3o2)c1N           %                  94.6
6  COc1cc2c(Nc3ccc(Br)cc3F)ncnc2cc1OCC1CCN(C)CC1           %                  57.5
7  O=C1NC(=O)c2c1c1c3ccccc3[nH]c1c1[nH]c3cc(Br)ccc3c21           %                  90.3
8  O=C1NC(=O)c2cc(Nc3ccc(F)cc3)c(Nc3ccc(F)cc3)cc21           %                  84.1
9        CCCCc1c(-c2ccc(O)cc2)[nH]c2nccnc12           %                    65

Record residual activity per entry; entries follow.
1. O=C(O)c1ccc2c3c1cccc3c(=O)n1c3ccccc3nc21
2. COc1cc2c(N3CCN(C(=O)Nc4ccc(OC(C)C)cc4)CC3)ncnc2cc1OCCCN1CCCCC1
3. FC(F)(F)c1ccc(/C=C/c2nc(COc3ccc(CCCCn4ccnn4)cc3)co2)cc1

1. 102
2. 105
3. 101

Record residual activity per entry; entries follow.
1. Cc1cc(Nc2nc(-c3ccccc3)nc3ccccc23)n[nH]1
2. CCc1nc(-c2ccc(OC)cc2)[nH]c1-c1ccncc1
3. CCOc1cc2ncnc(Nc3cccc(Br)c3)c2cc1OCC
4. O=c1cc(N2CCOCC2)oc2c(-c3ccccc3)cccc12
5. Cn1cc(/C=C2\C(=O)Nc3ccc(S(N)(=O)=O)cc32)c2ccccc21
6. O=C(c1ccccc1)c1ccc(N2CCOCC2)cc1O
7. N#Cc1c(NC(=O)c2cccc3ccccc23)sc2c1CCCC2

45.3
100
80.2
93.6
51.3
98.5
97

Record residual activity per entry; entries follow.
1. N#C/C(=C1/Nc2ccccc2S1)c1ccnc(NCCc2cccnc2)n1
2. O=c1c(-c2ccc(F)cc2)c(-c2ccncc2)[nH]n1-c1ccc(Cl)cc1
3. COc1cc2ncnc(Nc3ccc(O)c(Br)c3)c2cc1OC

1: 49.3; 2: 94.4; 3: 83.3

###

tgt: GSK3B (human) (UniProt P49841)
Sequence (P49841 whole entry, looked up): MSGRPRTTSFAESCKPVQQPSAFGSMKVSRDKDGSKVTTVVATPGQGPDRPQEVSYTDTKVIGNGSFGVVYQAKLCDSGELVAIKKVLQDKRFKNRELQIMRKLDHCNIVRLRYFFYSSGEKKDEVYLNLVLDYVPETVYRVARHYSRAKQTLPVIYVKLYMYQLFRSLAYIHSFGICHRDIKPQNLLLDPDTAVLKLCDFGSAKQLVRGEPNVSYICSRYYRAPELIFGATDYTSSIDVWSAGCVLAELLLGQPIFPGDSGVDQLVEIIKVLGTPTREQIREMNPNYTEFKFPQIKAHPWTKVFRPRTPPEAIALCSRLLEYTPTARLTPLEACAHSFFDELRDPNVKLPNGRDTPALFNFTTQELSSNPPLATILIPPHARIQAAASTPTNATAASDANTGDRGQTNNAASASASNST
measurement.description: radiometric filter-binding kinase assay, Kinase HotSpot
measurement.conditions: compound 0.5 µM; ATP 10 µM
experimental.readout: residual activity
Number first, unit second: that is the form wanted.

>>> df
                                   compound  experimental_readout  reported_measurement
0  O=c1c2ccccc2[nH]c(=S)n1CCN1CCC(=C(c2ccc(F)cc2)c2ccc(F)cc2)CC1     residual activity                  112%
1  N/C(=N\N=C/c1ccc(-c2cccc([N+](=O)[O-])c2)o1)N[N+](=O)[O-]     residual activity                  117%
2  c1ccc(-c2cnc(Nc3ccc(OCCN4CCCC4)cc3)s2)cc1     residual activity                  100%
3  O=S(=O)(NCCNC/C=C/c1ccc(Br)cc1)c1cccc2cnccc12     residual activity                 83.5%
4        CCCCc1c(-c2ccc(O)cc2)[nH]c2nccnc12     residual activity                 75.4%

Record residual activity per entry; entries follow.
1. Cc1cc(Nc2nc(-c3ccccc3)nc3ccccc23)n[nH]1
2. CCOc1cc2ncnc(Nc3cccc(Br)c3)c2cc1OCC
3. COc1cccc(-c2cc(=O)c3ccccc3o2)c1N
4. COc1cc2c(N3CCN(C(=O)Nc4ccc(OC(C)C)cc4)CC3)ncnc2cc1OCCCN1CCCCC1

1. 27.9%
2. 96.8%
3. 95.7%
4. 98.1%

Record residual activity per entry; entries follow.
1. Cn1cc(/C=C2\C(=O)Nc3ccc(S(N)(=O)=O)cc32)c2ccccc21
2. N#Cc1c(NC(=O)c2cccc3ccccc23)sc2c1CCCC2

1: 98.4%; 2: 97.5%

Record residual activity per entry; entries follow.
1. COc1cc2c(Nc3ccc(Br)cc3F)ncnc2cc1OCC1CCN(C)CC1
2. Nc1ncnc2c1cnn2-c1ccccc1
3. N#CCCc1ccc2c(c1)-c1[nH]c3ccc([N+](=O)[O-])cc3c1CC(=O)N2
4. CCc1nc(-c2ccc(OC)cc2)[nH]c1-c1ccncc1
5. COc1cc2ncnc(Nc3ccc(O)c(Br)c3)c2cc1OC

1: 101%; 2: 91.6%; 3: 2.71%; 4: 108%; 5: 92%
